Reported pIC50 is given for each of the following molecules.
- Assayed System: cloned recombinant human HDAC-1 (Homo sapiens)
- Construct: made in house; host or cells: Baculovirus insect cell expression system
- Assay Protocol: Human HDAC-1 enzyme inhibition, Assay 1 ([3H]-acetylated histone substrate, scintillation counting)
- Format: biochemical
- Test Context: Table 5d; read-out: HDAC-1 IC50
In simple prose, pIC50 is minus the logarithm base ten of a concentration in moles per litre.

Take a look at these entries with their results.
CSc1ccc(NCc2ccc(/C=C/C(=O)Nc3ccccc3N)cc2)cc1F | 5.30
Nc1ccccc1NC(=O)/C=C/c1ccc(CNc2cc(Cl)cc(Cl)c2)cc1 | 5.40
Nc1ccccc1NC(=O)/C=C/c1ccc(CNc2cccc([N+](=O)[O-])c2)cc1 | 4.62
Nc1ccccc1NC(=O)/C=C/c1ccc(CNc2cccc(OCCO)c2)cc1 | 5.40
Nc1ccccc1NC(=O)/C=C/c1ccc(CNc2ccc(Br)cn2)cc1 | 5.40
COc1cc(CCc2ccc(/C=C/C(=O)Nc3ccccc3N)cc2)cc(OC)c1OC | 5.00

Turning to the following molecule.
Tell me reported pIC50 for COc1ccc2nc(NCc3ccc(/C=C/C(=O)Nc4ccccc4N)cc3)sc2c1 , tested with cloned recombinant human HDAC-1 (Homo sapiens). 5.52

----------
This section lists IC50 readings for HDAC-1 (Homo sapiens, UniProt Q13547).
Hi! Could you send only the number? It should be in nM, unit omitted.

Nc1ccccc1NC(=O)c1ccc(N2CC[C@@H](Oc3cccnc3)C2)cc1 [compound 607] | 639
Nc1ccccc1NC(=O)c1ccc(N2CC[C@H](Nc3cccnc3)C2)cc1 [compound 604] | 60
Nc1ccccc1NC(=O)c1ccc(N2CC[C@H](Nc3ccccc3)C2)cc1 [compound 608] | 200

Param readout = IC50; param system = HDAC-1 (Homo sapiens, UniProt Q13547); param query = Nc1ccccc1NC(=O)c1ccc(N2CC[C@@H](Nc3ccccc3)C2)cc1 [compound 609] ; response: value 1220

Requested read-out IC50, target or system HDAC-1 (Homo sapiens, UniProt Q13547), entry Nc1ccccc1NC(=O)c1ccc(N2CC[C@@H](Nc3cccnc3)C2)cc1 [compound 605] 300

What is its IC50 for HDAC-1 (Homo sapiens, UniProt Q13547)? Entry: Nc1ccccc1NC(=O)c1ccc(N2CC[C@H](Sc3ccccn3)C2)cc1 [compound 617] 230

----------
- Assayed System: cloned recombinant human HDAC-1 (Homo sapiens, UniProt Q13547)
- Construct: made in house; host or cells: Baculovirus insect cell expression system
- Sequence (Q13547 whole entry): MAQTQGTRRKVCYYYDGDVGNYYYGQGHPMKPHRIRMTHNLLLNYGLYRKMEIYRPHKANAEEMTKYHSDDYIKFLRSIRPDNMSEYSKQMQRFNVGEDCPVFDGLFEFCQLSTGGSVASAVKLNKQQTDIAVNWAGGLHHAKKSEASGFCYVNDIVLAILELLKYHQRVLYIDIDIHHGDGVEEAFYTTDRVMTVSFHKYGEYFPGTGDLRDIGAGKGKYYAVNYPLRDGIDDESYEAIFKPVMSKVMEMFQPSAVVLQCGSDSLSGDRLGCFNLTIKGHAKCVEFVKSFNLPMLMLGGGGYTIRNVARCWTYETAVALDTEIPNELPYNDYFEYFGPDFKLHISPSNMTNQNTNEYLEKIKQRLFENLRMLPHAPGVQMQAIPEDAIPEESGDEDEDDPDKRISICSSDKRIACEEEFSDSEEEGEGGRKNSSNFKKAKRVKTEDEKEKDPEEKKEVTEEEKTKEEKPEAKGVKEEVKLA
- Assay Protocol: Human HDAC-1 enzyme inhibition, Assay 1 ([3H]-acetylated histone substrate, scintillation counting)
- Type: biochemical
- Test Context: Table 5c; read-out: Human HDAC-1 IC50
As shown below, each of these compounds has a reported pIC50 value.
Value format note: pIC50 is -log10 of concentration (mol/L); just state the number.

Answered cases to consult:
Cc1ccc(CNc2ccc(/C=C/C(=O)Nc3ccccc3N)cn2)cc1 | 5.15
Nc1ccccc1NC(=O)/C=C/c1ccc(NCc2cccnc2)cc1 | 5.00
Nc1ccccc1NC(=O)/C=C/c1ccc(NCc2cccc(OC(F)(F)F)c2)nc1 | 6.40
COc1ccc(C(=O)Nc2ccc(/C=C/C(=O)Nc3ccccc3N)cn2)cc1 | 4.60
COc1ccc(CNc2cccc(/C=C/C(=O)Nc3ccccc3N)n2)cc1 | 4.66
Nc1ccc(CNc2ncc(/C=C/C(=O)Nc3ccccc3N)cn2)cc1 | 4.82

Consider now this further compound.
Need pIC50 of COc1cc(CNCc2ccc(/C=C/C(=O)Nc3ccccc3N)cc2)cc(OC)c1OC , thanks. 4.92

----------
- Assayed System: cloned recombinant human HDAC-1 (Homo sapiens)
- Construct: made in house; host or cells: Baculovirus insect cell expression system
- Assay Protocol: Human HDAC-1 enzyme inhibition, Assay 1 ([3H]-acetylated histone substrate, scintillation counting)
- Assay type: biochemical
- Test Context: Table 5d; read-out: HDAC-1 IC50
Quantity Kind: IC50 (µM)
Form entry: value (µM) — number only.

Nc1ccccc1NC(=O)/C=C/c1ccc(Br)cc1 | 15
CSc1cccc(NCc2ccc(/C=C/C(=O)Nc3ccccc3N)cc2)c1 | 14
Nc1ccccc1NC(=O)/C=C/c1ccc(CNc2ccc3c(c2)OCO3)cc1 | 3

Given the compound COc1cc(NCc2ccc(/C=C/C(=O)Nc3ccccc3N)cc2[N+](=O)[O-])cc(OC)c1OC , what is its reported IC50? 13

So what does the record say about IC50 for Nc1ccccc1NC(=O)/C=C/c1ccc(CNc2cccc(I)c2)cc1 ? 3

----------
- Assayed System: cloned recombinant human HDAC-1 (Homo sapiens)
- Construct: made in house; host or cells: Baculovirus insect cell expression system
- Assay Protocol: Human HDAC-1 enzyme inhibition, Assay 1 ([3H]-acetylated histone substrate, scintillation counting)
- Type: biochemical
- Test Context: Table 5F; read-out: Human HDAC-1 IC50
Quantity Kind: pIC50
Formally, pIC50 is defined as -log10 of the concentration c, with c in mol/L.

Illustrative cases are given below, each with its answer.
C=C(C)C#Cc1ccc(C(=O)Nc2ccccc2N)cc1 [Cpd 193] | 5.40
N#C/N=C(\NCc1ccc(C(=O)Nc2ccccc2N)cc1)Nc1ccncc1 [Cpd 240] | 5.74
Nc1ccccc1NC(=O)c1ccc(C#CC(c2ccc(Cl)cc2)N2CCOCC2)cc1 (centres unmarked) [Cpd 201] | 4.96
Cc1ccc(C#N)c(OCc2ccc(C(=O)Nc3ccccc3N)cc2)n1 [Cpd 577] | 5.70
Nc1ccccc1NC(=O)c1ccc(C#CC2(O)CCCCC2)nc1 [Cpd 463] | 4.92

Fill blank: measured pIC50 of the compound Nc1ccccc1NC(=O)c1ccc(NCc2ccc(F)cc2)cc1 [Cpd 413] is ____. 5.70

Which pIC50 value belongs to COc1cc(NCc2ccc(C(=O)Nc3cscc3N)cc2)cc(OC)c1OC [Cpd 574] ? 4.89

Requested field: pIC50. Item: Nc1ccccc1NC(=O)c1ccc(N2CCOCC2)cc1 [Cpd 238] 5.52

Fill in the blank: the reported pIC50 of COc1cc(NCc2ccc(-c3ccc(C(=O)Nc4ccccc4N)cc3)cc2)cc(OC)c1OC [Cpd 189] is ____. 5.52

Can you share its pIC50? I mean this compound: Nc1ccccc1NC(=O)c1ccc(NCCn2cnc3ccccc3c2=O)nc1 [Cpd 446] 4.68

What measured pIC50 goes with Nc1ccccc1NC(=O)c1ccc(CNc2ccc3c(c2)OCO3)cc1 [Cpd 428] ? 6.15

Returns the measured pIC50 for the input compound. Input: CN(C)c1nc2cc(NCc3ccc(C(=O)Nc4ccccc4N)cc3)ccc2s1 [Cpd 448] 5.52

What measured pIC50 goes with Nc1ccccc1NC(=O)c1ccc(NC(=O)C(F)(F)F)cc1 [Cpd 431] ? 5.30

Consider the compound shown here: Nc1ccccc1NC(=O)c1ccc(-c2noc(CN3CCOCC3)n2)cc1 [Cpd 355] What is its recorded pIC50? 4.60

Reported pIC50, compound COc1cc(NCc2ccc(C(=O)Nc3ccccc3N)cc2)c(C(C)=O)cc1OC [Cpd 441] : ____ 5.70

Fill blank: measured pIC50 of the compound CSc1cccc(NCc2ccc(C(=O)Nc3ccccc3N)cc2)c1 [Cpd 438] is ____. 5.30

Could you tell me which pIC50 is on file for COc1ccc(CNc2ccc(C(=O)Nc3ccccc3N)cc2)cc1 [Cpd 414] ? 5.52

I'd like to know its pIC50. The compound in question is Nc1ccccc1NC(=O)c1ccc(-c2ccc(CNC3Cc4ccccc4C3)s2)cc1 [Cpd 465] 5.70

Field request: pIC50 | item: COc1ccc(NCc2ccc(C(=O)Nc3cc(F)c(F)cc3N)cc2)cc1OC [Cpd 454] 5.40

Dear colleague, I am looking for the recorded pIC50 of the following compound: COc1ccc(NCc2ccc(C(=O)Nc3ccccc3N)cc2)cn1 [Cpd 421] 5.40

----------
- Assayed System: cloned recombinant human HDAC-1 (Homo sapiens, UniProt Q13547)
- Construct: made in house; host or cells: Baculovirus insect cell expression system
- Assay Protocol: Human HDAC-1 enzyme inhibition, Assay 1 ([3H]-acetylated histone substrate, scintillation counting)
- Assay type: biochemical
- Test Context: Table 5F; read-out: Human HDAC-1 IC50
Quantity Kind: pIC50
Keep in mind that pIC50 stands for -log10 of concentration in molar terms.

Consider the worked cases shown below.
Nc1ccccc1NC(=O)c1ccc(CNc2cc(-c3ccccc3)[nH]n2)cc1 | 5.70
COc1ccc(CNC2(C#Cc3ccc(C(=O)Nc4ccccc4N)cc3)CCCCC2)cc1 | 5.70
Cc1nn(-c2ccccc2)c(C)c1Cc1ccc(C(=O)Nc2ccccc2N)cc1 | 5.40
Cn1c(=O)c2cc(NCc3ccc(C(=O)Nc4ccccc4N)cc3)ccc2n(C)c1=O | 5.85
CCN1C(=O)C(Cc2ccc(C(=O)Nc3ccccc3N)cc2)Oc2ccccc21 (stereo not drawn) | 5.05

So what does the record say about pIC50 for Cc1cc(C)nc(SCc2ccc(C(=O)Nc3ccccc3N)cc2)n1 ? 5.70

Quick check: pIC50 of COc1cc(N2CC(c3ccc(C(=O)Nc4ccccc4N)cc3)OC2=O)cc(OC)c1OC (stereo not drawn) ? 5.15

Fill in: pIC50 of Nc1ccccc1NC(=O)c1ccc(Cn2cnc3cc(F)c(F)cc3c2=O)cc1 is ___ 5.40

For the compound Nc1ccccc1NC(=O)c1ccc(CNc2nc(F)c(F)cc2F)cc1 , what pIC50 is on record? 5.70
